Reported Inh (PKA) values follow for various compounds
- Test system: PRKACA-PRKAR2A interaction (SmBiT-PRKACA / LgBiT-PRKAR2A), protein kinase A
- Parameters: NanoLuc complementation counter-screen in cell extract, PRKACA with PRKAR2A, loss of luminescence, detects NanoLuc interference
- studyConditions: counter-screen for NanoLuc interference; 0.5 h, 20 µM; inhibitor
Numbered stars: 1 amine (or outer) side, 2 acyl side, 3 side chain; on linkers, the order of the positions; unused ones are H or OH. Bridge positions count the residues as written; N and C are the ends. Square brackets hold non-standard residues; d marks the D form. Peptide text beside a SMILES is read from it. I, II: the chains in the order shown. Actinocin(9to1) = Cc1c2oc3c(C)ccc(C(=O)[*:1])c3nc-2c(C(=O)[*:2])c(N)c1=O; NMeV = CN[C@H](C(=O)O)C(C)C; Sar = CNCC(=O)O
Write the answer as a number in %, unit excluded.

Would you please look over these solved cases?
compound: O=C(NC1CCNCC1)c1n[nH]cc1NC(=O)c1c(Cl)cccc1Cl
targetOfAssay: PRKACA-PRKAR2A interaction (SmBiT-PRKACA / LgBiT-PRKAR2A), protein kinase A
reportedMetric: Inh (PKA)
unitAnnotation: %
readoutValue: 0.5831
--
compound: CC1(C)CCC(CN2CCN(c3ccc(C(=O)NS(=O)(=O)c4ccc(NCC5CCOCC5)c([N+](=O)[O-])c4)c(Oc4cnc5[nH]ccc5c4)c3)CC2)=C(c2ccc(Cl)cc2)C1
targetOfAssay: PRKACA-PRKAR2A interaction (SmBiT-PRKACA / LgBiT-PRKAR2A), protein kinase A
reportedMetric: Inh (PKA)
unitAnnotation: %
readoutValue: 28.89
--
compound: COC[C@H]1OC(=O)c2coc3c2[C@@]1(C)C1=C(C3=O)[C@@H]2CCC(=O)[C@@]2(C)C[C@H]1OC(C)=O
targetOfAssay: PRKACA-PRKAR2A interaction (SmBiT-PRKACA / LgBiT-PRKAR2A), protein kinase A
reportedMetric: Inh (PKA)
unitAnnotation: %
readoutValue: 31.91
--
compound: Oc1ncnc2[nH]ncc12
targetOfAssay: PRKACA-PRKAR2A interaction (SmBiT-PRKACA / LgBiT-PRKAR2A), protein kinase A
reportedMetric: Inh (PKA)
unitAnnotation: %
readoutValue: -0.9072
--
compound: CC(C)(C)c1cc(C=C(C#N)C#N)cc(Br)c1O
targetOfAssay: PRKACA-PRKAR2A interaction (SmBiT-PRKACA / LgBiT-PRKAR2A), protein kinase A
reportedMetric: Inh (PKA)
unitAnnotation: %
readoutValue: 81.26

Turning now to a further compound:
[ask] Name the reported Inh (PKA) value associated with the compound Cc1c2oc3c(C)ccc(C(=O)N[C@@H]4C(=O)N[C@H](C(C)C)C(=O)N5CCC[C@H]5C(=O)N(C)CC(=O)N(C)[C@@H](C(C)C)C(=O)O[C@@H]4C)c3nc-2c(C(=O)N[C@@H]2C(=O)N[C@H](C(C)C)C(=O)N3CCC[C@H]3C(=O)N(C)CC(=O)N(C)[C@@H](C(C)C)C(=O)O[C@@H]2C)c(N)c1=O [UM0141835:01, Actinomycin D] (I: T[dV]P[Sar][NMeV] / II: T[dV]P[Sar][NMeV]; ester I:1-I:C, II:1-II:C; linker I:N-II:N via Actinocin(9to1))
[reply] 21.28
